target: OX1 (Homo sapiens, UniProt O43613); construct: expressed in transfected cells; host or cells: CHO (CHO-OX1, kept under selection antibiotic); assay: Orexin receptor cell-based functional assay, [Ca2+]i by FLIPR, CHO-OX1 cells; settings: CHO-OX1 cells, [Ca2+]i by FLIPR, antagonist dose-range 0.1 nM-10 μM, EC90 of OXA; read-out: OX1
Sequence (O43613 whole entry): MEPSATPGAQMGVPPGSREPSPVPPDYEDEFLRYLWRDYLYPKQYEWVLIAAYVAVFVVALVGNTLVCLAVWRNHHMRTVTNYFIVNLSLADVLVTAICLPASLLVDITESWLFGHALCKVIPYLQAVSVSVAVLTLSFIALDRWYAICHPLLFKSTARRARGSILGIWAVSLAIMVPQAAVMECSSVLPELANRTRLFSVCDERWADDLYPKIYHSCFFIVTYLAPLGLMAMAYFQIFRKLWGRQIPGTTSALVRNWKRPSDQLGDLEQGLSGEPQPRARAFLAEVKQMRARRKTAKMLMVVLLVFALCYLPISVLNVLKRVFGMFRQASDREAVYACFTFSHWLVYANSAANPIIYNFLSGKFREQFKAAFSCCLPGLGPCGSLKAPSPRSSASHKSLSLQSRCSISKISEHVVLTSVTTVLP
measure: IC50 (nM)

[P] Cc1ccc(-c2cccnn2)c(C(=O)N2CCC[C@@H](C)[C@H]2CNc2ccc(C(F)(F)F)cn2)c1
[Q] Cc1ccc(-c2ccc(C(F)(F)F)cn2)c(C(=O)N2CCC[C@@H](C)[C@H]2CNc2ccc(Cl)cn2)c1
Problem: # return whichever of P and Q has the smaller IC50 Output the label that corresponds to your choice.
Result: P
(P: 7 nM, Q: 220 nM)
